Provenance of the data: ChEMBL document CHEMBL1126069

Species: Rattus norvegicus
Protocol Notes: Relative affinity for rat androgen receptor(AR) and mineralocorticoid receptor(MR)
Classify as follows. Reported RBA ratio greater than or equal to 80: rule met. Reported RBA ratio below: rule not met.

Solved entries (count: 4):
Does the compound C[C@@H]1CC2=CC(=O)CC[C@@H]2C2CC[C@@]3(C)C(C[C@H](F)[C@@H]3O)C21 (stereo partly specified) have recorded RBA ratio that is 80 or more?
rule met

Try C[C@]12CC[C@H]3[C@@H](CCC4CC(=O)CC[C@@]43C)[C@@H]1C[C@@H](F)[C@@H]2O (stereo partly specified) next.
rule not met

Another compound to check: C[C@@H]1CC2=CC(=O)CC[C@@H]2C2CC[C@@]3(C)C(C[C@@H](F)[C@@H]3O)C21 (stereo partly specified)
rule met

Also, C[C@@H]1CC2=CC(=O)CC[C@@H]2C2CC[C@@]3(C)C(CC[C@@]3(O)CF)C21 (stereo partly specified) please.
rule not met

---
Reported RBA ratio at or above 80? C[C@@H]1CC2=CC(=O)CC[C@@H]2C2CC[C@@]3(C)C(CC[C@]3(C)O)C21 (stereo partly specified)
rule not met

How about this compound: C[C@@H]1CC2=CC(=O)CC[C@@H]2C2CC[C@@]3(C)C(CC[C@@H]3O)C21 (stereo partly specified)
rule met

// same read-out, input: C[C@]12C=CC3=C4CCC(=O)C=C4CCC3C1CC[C@@]2(O)CF (stereo partly specified)
rule not met

Another: C[C@]12CC[C@H]3[C@@H](CCC4CC(=O)CC[C@@]43C)[C@@H]1C[C@H](F)[C@@H]2O (stereo partly specified)
rule met

Same question, C[C@@H]1CC2=CC(=O)CC[C@@H]2C2CC[C@@]3(C)C(C[C@@H](F)[C@]3(C)O)C21 (stereo partly specified) this time
rule met

Now consider "C[C@]1(O)CC[C@H]2[C@@H]3CCC4=CC(=O)CCC4=C3C=C[C@@]21C" .
rule not met

What about this compound? C[C@@H]1CC2=CC(=O)CC[C@@H]2C2CC[C@@]3(C)C(C[C@H](F)[C@]3(C)O)C21 (stereo partly specified)
rule met
